system: IKZF2 (Homo sapiens (Human), UniProt Q96SW2+Q9UKS7)
Sequence (Q9UKS7 whole entry): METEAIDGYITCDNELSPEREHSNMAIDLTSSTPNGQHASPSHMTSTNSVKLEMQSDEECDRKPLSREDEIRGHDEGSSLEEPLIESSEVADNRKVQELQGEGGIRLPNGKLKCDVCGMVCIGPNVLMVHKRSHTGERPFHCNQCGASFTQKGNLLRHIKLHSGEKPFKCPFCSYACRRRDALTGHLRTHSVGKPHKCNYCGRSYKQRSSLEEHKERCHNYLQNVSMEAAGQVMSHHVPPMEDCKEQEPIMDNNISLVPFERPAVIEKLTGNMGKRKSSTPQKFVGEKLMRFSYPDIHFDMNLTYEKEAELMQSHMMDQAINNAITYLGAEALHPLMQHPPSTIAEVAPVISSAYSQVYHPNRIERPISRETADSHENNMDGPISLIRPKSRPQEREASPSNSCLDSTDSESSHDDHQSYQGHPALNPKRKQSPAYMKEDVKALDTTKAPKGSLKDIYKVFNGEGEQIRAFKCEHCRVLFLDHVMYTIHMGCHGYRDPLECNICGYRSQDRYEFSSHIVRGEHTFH
Sequence (Q96SW2 whole entry): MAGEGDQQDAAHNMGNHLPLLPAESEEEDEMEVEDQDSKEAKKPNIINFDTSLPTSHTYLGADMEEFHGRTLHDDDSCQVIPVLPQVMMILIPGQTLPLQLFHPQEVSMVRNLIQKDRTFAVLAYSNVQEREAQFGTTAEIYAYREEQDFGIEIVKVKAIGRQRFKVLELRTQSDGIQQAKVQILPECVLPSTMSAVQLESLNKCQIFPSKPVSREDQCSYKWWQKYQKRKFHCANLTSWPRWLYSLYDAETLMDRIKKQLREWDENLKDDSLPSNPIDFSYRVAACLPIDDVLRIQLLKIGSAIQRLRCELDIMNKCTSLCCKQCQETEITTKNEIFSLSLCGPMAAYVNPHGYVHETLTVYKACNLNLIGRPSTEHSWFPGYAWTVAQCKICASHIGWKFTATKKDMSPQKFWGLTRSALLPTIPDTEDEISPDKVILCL
Sequence (Q16531 2-1140 partner): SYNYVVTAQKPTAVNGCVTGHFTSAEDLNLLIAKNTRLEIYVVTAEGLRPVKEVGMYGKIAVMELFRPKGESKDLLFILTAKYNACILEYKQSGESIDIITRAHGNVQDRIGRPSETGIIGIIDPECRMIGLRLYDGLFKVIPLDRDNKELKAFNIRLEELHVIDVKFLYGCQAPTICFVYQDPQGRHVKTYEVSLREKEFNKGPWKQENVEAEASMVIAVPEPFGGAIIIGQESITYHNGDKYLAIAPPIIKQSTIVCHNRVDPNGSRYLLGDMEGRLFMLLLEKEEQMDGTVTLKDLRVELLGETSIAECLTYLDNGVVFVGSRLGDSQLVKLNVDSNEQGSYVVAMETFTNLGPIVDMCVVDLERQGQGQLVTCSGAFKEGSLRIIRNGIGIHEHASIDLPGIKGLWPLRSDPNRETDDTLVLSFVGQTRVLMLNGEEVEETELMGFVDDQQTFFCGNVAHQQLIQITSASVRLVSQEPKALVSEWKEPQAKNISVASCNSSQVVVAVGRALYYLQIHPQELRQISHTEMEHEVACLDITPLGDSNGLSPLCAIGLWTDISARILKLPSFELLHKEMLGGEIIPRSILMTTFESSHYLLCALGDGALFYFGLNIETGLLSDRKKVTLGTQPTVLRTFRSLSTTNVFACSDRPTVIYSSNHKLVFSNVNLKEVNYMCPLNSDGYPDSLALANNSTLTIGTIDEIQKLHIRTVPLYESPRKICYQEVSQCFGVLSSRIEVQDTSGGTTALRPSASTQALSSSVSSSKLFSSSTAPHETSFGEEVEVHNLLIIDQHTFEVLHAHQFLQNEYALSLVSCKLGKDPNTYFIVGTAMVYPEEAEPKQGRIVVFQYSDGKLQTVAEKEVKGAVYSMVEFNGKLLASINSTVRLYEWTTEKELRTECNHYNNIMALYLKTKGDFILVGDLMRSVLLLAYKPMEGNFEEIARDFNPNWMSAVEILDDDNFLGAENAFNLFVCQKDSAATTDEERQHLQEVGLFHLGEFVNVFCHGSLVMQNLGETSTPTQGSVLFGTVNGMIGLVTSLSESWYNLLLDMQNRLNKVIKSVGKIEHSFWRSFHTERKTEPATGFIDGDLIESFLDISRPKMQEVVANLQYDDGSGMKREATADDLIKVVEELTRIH
experimentalDetails: In vitro IKZF2 Western Blot Assay in Jurkat cells
Assay type: cell-based
cond: 24 hrs, 0.1 μM, read-out: IKZF2 degradation (%) @ μM 0.1
Provide the recorded inhibition at 0.1 µM for the entries that follow.

### Prompt Give inhibition at 0.1 µM for the following molecule: O=C1CCC(N2Cc3cc(-c4cc(CN5CCCC5c5ccccc5)cn5ccnc45)ccc3C2=O)C(=O)N1 (stereo not shown)
### Response < 30%

### Prompt Give inhibition at 0.1 µM for the following molecule: CC1(C)CCN(Cc2cc(-c3ccc4c(c3)CN(C3CCC(=O)NC3=O)C4=O)c3nccn3c2)CC1 (stereo not shown)
### Response < 30%

### Prompt Give inhibition at 0.1 µM for the following molecule: O=C1CCC(N2Cc3cc(-c4cc(CN5CCC5)cn5ccnc45)ccc3C2=O)C(=O)N1 (stereo not shown)
### Response > 50%

### Prompt Give inhibition at 0.1 µM for the following molecule: O=C1CCC(N2Cc3cc(-c4cc(CNCCc5c(F)cccc5F)cn5ccnc45)ccc3C2=O)C(=O)N1 (stereo not shown)
### Response < 30%

----------
system: CRBN/DDB1 (Homo sapiens (Human), UniProt Q96SW2)
Sequence (Q16531 whole entry partner, species assumed, one chain of several): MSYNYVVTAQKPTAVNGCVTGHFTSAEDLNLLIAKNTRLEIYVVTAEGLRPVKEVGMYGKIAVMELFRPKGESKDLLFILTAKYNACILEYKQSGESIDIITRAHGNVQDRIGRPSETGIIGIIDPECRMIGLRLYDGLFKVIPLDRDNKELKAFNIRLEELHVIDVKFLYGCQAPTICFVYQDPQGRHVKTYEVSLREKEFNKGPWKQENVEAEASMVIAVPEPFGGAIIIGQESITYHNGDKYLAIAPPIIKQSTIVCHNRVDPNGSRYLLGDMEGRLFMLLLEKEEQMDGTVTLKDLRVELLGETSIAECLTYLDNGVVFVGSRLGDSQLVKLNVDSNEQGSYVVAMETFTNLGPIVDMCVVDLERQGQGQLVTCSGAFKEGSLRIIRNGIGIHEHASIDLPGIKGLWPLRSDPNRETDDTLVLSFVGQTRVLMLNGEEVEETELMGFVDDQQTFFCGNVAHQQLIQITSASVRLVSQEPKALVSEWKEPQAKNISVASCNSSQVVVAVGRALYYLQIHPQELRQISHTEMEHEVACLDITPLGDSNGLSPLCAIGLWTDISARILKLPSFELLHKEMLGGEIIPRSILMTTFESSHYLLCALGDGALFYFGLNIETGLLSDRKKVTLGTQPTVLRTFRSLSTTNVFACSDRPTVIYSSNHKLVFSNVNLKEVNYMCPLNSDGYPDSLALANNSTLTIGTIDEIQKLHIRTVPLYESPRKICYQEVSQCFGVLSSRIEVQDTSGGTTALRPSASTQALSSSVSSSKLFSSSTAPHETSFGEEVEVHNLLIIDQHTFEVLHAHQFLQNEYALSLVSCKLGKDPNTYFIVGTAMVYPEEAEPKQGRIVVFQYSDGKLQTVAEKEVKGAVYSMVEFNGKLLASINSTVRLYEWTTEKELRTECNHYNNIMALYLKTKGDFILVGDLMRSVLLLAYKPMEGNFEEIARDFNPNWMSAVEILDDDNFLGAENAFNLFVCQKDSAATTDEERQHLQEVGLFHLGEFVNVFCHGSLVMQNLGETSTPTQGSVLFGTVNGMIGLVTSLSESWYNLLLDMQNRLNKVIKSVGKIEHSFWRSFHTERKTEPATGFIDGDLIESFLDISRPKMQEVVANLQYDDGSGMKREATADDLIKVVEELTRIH
experimentalDetails: IC50 measurements for binding to CRBN/DDB1 (HTRF)
cond: His tagged CRBN+DDB, Cy5-labeled Thalidomide probe, one hour
pIC50: −log10 of the molar value.
Provide the recorded pIC50 for the entries that follow.

### Prompt Give pIC50 for the following compound: O=C1CCC(N2Cc3cc(-c4cc(CN5CCCC5)c5ncccc5n4)ccc3C2=O)C(=O)N1 (centres unmarked) [Example 104]
### Response 6.00 to 6.30

### Prompt Give pIC50 for the following compound: O=C1CCC(N2Cc3cc(-c4cc(CN5CCCC5)c5ncn(C6CS(=O)(=O)C6)c5n4)ccc3C2=O)C(=O)N1 (centres unmarked) [Example 225]
### Response 6.00 to 6.30

### Prompt Give pIC50 for the following compound: Cn1ccc2c(CN3CCC3)cc(-c3ccc4c(c3)CN(C3CCC(=O)NC3=O)C4=O)nc21 (centres unmarked) [Example 56]
### Response > 7.00

### Prompt Give pIC50 for the following compound: Cn1ccnc1N1CCN(Cc2cc(-c3ccc4c(c3)CN(C3CCC(=O)NC3=O)C4=O)nc3c2ccn3C)CC1 (centres unmarked) [Example 99]
### Response 6.30 to 7.00

### Prompt Give pIC50 for the following compound: O=C1CCC(N2Cc3cc(-c4cc(CN5CCCC5)c5cn(C6COC6)nc5n4)ccc3C2=O)C(=O)N1 (centres unmarked) [Example 317]
### Response 6.30 to 7.00

### Prompt Give pIC50 for the following compound: O=C1CCC(N2Cc3cc(-c4cc(CN5CCC5)cn5ccnc45)ccc3C2=O)C(=O)N1 (centres unmarked) [Example 34]
### Response > 7.00

### Prompt Give pIC50 for the following compound: CN(C)C(=O)CC1CCN(Cc2cc(-c3ccc4c(c3)CN(C3CCC(=O)NC3=O)C4=O)nc3[nH]ccc23)C1 (centres unmarked) [Example 167]
### Response 6.30 to 7.00

### Prompt Give pIC50 for the following compound: C[C@@H]1CC[C@@H](C)N1Cc1cc(-c2ccc3c(c2)CN(C2CCC(=O)NC2=O)C3=O)nc2c1ccn2C (some centres unmarked) [Example 108]
### Response 6.00 to 6.30

### Prompt Give pIC50 for the following compound: O=C1CCC(N2Cc3cc(-c4cc(CN5CCCC5)c5ccn(Cc6ccccc6)c5n4)ccc3C2=O)C(=O)N1 (centres unmarked) [Example 147]
### Response 6.30 to 7.00

### Prompt Give pIC50 for the following compound: Cn1ccc2c(CN3CCC(O)CC3)cc(-c3ccc4c(c3)CN(C3CCC(=O)NC3=O)C4=O)nc21 (centres unmarked) [Example 305]
### Response 5.30 to 6.00

### Prompt Give pIC50 for the following compound: O=C1CCC(N2Cc3c(ccc(-c4cc(CN5CCCC5)c5ccn(C6CS(=O)(=O)C6)c5n4)c3Cl)C2=O)C(=O)N1 (centres unmarked) [Example 230]
### Response 6.30 to 7.00

### Prompt Give pIC50 for the following compound: Cn1ccc2c(CN3CCN(S(C)(=O)=O)CC3)cc(-c3ccc4c(c3)CN(C3CCC(=O)NC3=O)C4=O)nc21 (centres unmarked) [Example 61]
### Response 6.00 to 6.30

### Prompt Give pIC50 for the following compound: O=C1CCC(N2Cc3cc(-c4cc(CN5CCC5)c5cc[nH]c5n4)ccc3C2=O)C(=O)N1 (centres unmarked) [Example 84]
### Response > 7.00

### Prompt Give pIC50 for the following compound: CN(C)C1CCN(Cc2cc(-c3ccc4c(c3)CN(C3CCC(=O)NC3=O)C4=O)nc3c2ccn3C2COC2)CC1 (centres unmarked) [Example 190]
### Response 6.30 to 7.00

### Prompt Give pIC50 for the following compound: O=C1CCC(N2Cc3cc(-c4cc(CN5CCCCC5)cn5ccnc45)ccc3C2=O)C(=O)N1 (centres unmarked) [Example 33]
### Response 6.30 to 7.00

### Prompt Give pIC50 for the following compound: Cc1nc2c(CN3CCCC3)cc(-c3ccc4c(c3)CN(C3CCC(=O)NC3=O)C4=O)nc2o1 (centres unmarked) [Example 197]
### Response 6.00 to 6.30

### Prompt Give pIC50 for the following compound: COC1CCN(Cc2cc(-c3ccc4c(c3)CN(C3CCC(=O)NC3=O)C4=O)nc3c2ccn3C2COC2)CC1 (centres unmarked) [Example 189]
### Response 6.30 to 7.00

### Prompt Give pIC50 for the following compound: O=C1CCC(N2Cc3cc(-c4cc(CN5CC6COCC(C6)C5)c5ccn(C6COC6)c5n4)ccc3C2=O)C(=O)N1 (centres unmarked) [Example 191]
### Response 5.30 to 6.00

### Prompt Give pIC50 for the following compound: O=C1CCC(N2Cc3cc(-c4cc(CN5CC6COCC6C5)c5ccn(C6COC6)c5n4)ccc3C2=O)C(=O)N1 (centres unmarked) [Example 186]
### Response 6.30 to 7.00

### Prompt Give pIC50 for the following compound: Cn1ccc2c(CN3CCCC3)cc(-c3cc4c(cc3Cl)C(=O)N(C3CCC(=O)NC3=O)C4)nc21 (centres unmarked) [Example 83]
### Response 5.30 to 6.00

### Prompt Give pIC50 for the following compound: O=C1CCC(N2Cc3cc(-c4cc(CN5CCC6(CC5)COC6)cc5cncn45)ccc3C2=O)C(=O)N1 (centres unmarked) [Example 10]
### Response 6.00 to 6.30

### Prompt Give pIC50 for the following compound: O=C1CCC(N2Cc3cc(-c4cc(CN5CCC(CO)C5)c5ccn(C6COC6)c5n4)ccc3C2=O)C(=O)N1 (centres unmarked) [Example 164]
### Response 6.30 to 7.00

### Prompt Give pIC50 for the following compound: O=C1CCC(N2Cc3cc(-c4cc(CN5CCCC5)c5c(ccn5CCO)n4)ccc3C2=O)C(=O)N1 (centres unmarked) [Example 175]
### Response 5.30 to 6.00

### Prompt Give pIC50 for the following compound: O=C1CCC(N2Cc3cc(-c4cc(CN5CCCC5)cc5cncn45)cc(F)c3C2=O)C(=O)N1 (centres unmarked) [Example 28]
### Response 6.00 to 6.30

### Prompt Give pIC50 for the following compound: Cn1ccc2c(CN3CCC4(CCCC4)CC3)cc(-c3ccc4c(c3)CN(C3CCC(=O)NC3=O)C4=O)nc21 (centres unmarked) [Example 103]
### Response 6.30 to 7.00

### Prompt Give pIC50 for the following compound: Cn1ccc2c(CN3CCOCC3)cc(-c3ccc4c(c3)CN(C3CCC(=O)NC3=O)C4=O)nc21 (centres unmarked) [Example 58]
### Response 6.00 to 6.30

### Prompt Give pIC50 for the following compound: O=C1CCC(N2Cc3cc(-c4cc(CNCCc5ccccc5Cl)cc5cncn45)ccc3C2=O)C(=O)N1 (centres unmarked) [Example 21]
### Response 6.30 to 7.00

### Prompt Give pIC50 for the following compound: CC(C)n1nc(N)c2nc(-c3ccc4c(c3)CN(C3CCC(=O)NC3=O)C4=O)cc(CN3CCCC3)c21 (centres unmarked) [Example 177]
### Response 6.00 to 6.30

### Prompt Give pIC50 for the following compound: O=C1CCC(N2Cc3cc(-c4cc(CN5CCC(F)C5)c5ccn(C6CC6)c5n4)ccc3C2=O)C(=O)N1 (centres unmarked) [Example 141]
### Response 5.30 to 6.00
